Experiment: blockers of RIG-like receptor reporter activation – cell-based, Sendai virus stimulus, luciferase, 10K MLSCN set, TLR/RLR signaling modifier project, primary screen (AID 602276);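 note: firefly luciferase from ISG56 promoter only with Renilla not read in this screen; 0% = Sendai virus plus DMSO and 100% = medium plus DMSO without virus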
Details: HEK293 RL24 IRF3 luciferase reporter, at 10 µM, hits give high values
Items are presented alongside their recorded inhibition.
// units = %; emit number, no label

{"compound": "CCN(CC)S(=O)(=O)c1ccc(N2CCCC2)c(C(=O)OCC(=O)/C(C#N)=C(\\C)N)c1", "quantitativeReadout": 15.9}
{"compound": "CCCC(=O)Nc1ccc(NC(=O)C2CC2)cn1", "quantitativeReadout": 14.1}
{"compound": "CCOc1ccc(Cn2nnc(C(=O)Nc3ccc(OC)cc3OC)c2N)cc1", "quantitativeReadout": -5.26}
{"compound": "Cc1cccn2c(=O)c3cc(C#N)c(=NC(=O)c4ccncc4)n(Cc4ccco4)c3nc12", "quantitativeReadout": 10.3}
{"compound": "OCCn1c(CSc2nnc(-c3ccco3)n2-c2ccccc2)nc2ccc(Cl)cc21", "quantitativeReadout": 9.6}
{"compound": "CCOCCn1cnc2sc(C(=O)Nc3nc(C)c(C(=O)OCC)s3)c(C)c2c1=O", "quantitativeReadout": 11.8}
{"compound": "CCN(Cc1nc2ccccc2c(=O)[nH]1)Cc1nc2cc(OC)c(OC)cc2c(=O)[nH]1", "quantitativeReadout": -12.7}
{"compound": "Cc1cc2ccccc2n1CCNC(=O)c1ccc(S(=O)(=O)N2CCOCC2)cc1", "quantitativeReadout": 13.5}
{"compound": "COc1ccc(CC(=O)Nc2ccc(OC)c(NC(=O)c3ccco3)c2)cc1", "quantitativeReadout": -27.5}
{"compound": "CCNS(=O)(=O)c1ccc(S(=O)(=O)N(Cc2ccccn2)C2CCCCC2)cc1", "quantitativeReadout": 12.3}

Fill in: inhibition of CC(C)Cn1c2c(c(O)c(C(=O)Nc3ncccc3O)c1=O)CCCC2 is ___
8.02

Also need O=C(Cc1c(F)cccc1Cl)Nc1ccncc1 , thanks.
12.9

Also need CCn1c(SCC(=O)c2ccc(Cl)cc2)nnc1-c1ccoc1C , thanks.
3.62

Also need COc1ccc(-c2cc(C(=O)N3CCN(Cc4ccccc4)CC3)no2)cc1OC , thanks.
8.32

Also need O=C1OCCC1Sc1ncnc2sc3c(c12)CCC3 (stereo unspecified) , thanks.
9.45

Also need NS(=O)(=O)c1ccc(NC(=O)CSc2nnc(Cc3cccs3)n2-c2ccccc2)cc1 , thanks.
17.4

Also need O=C(Cn1nnc(-c2ccc(S(=O)(=O)N3CCCC3)cc2)n1)NCC1CCCO1 (stereo unspecified) , thanks.
-11.8

Also need CCOc1cc(NC(=O)c2ccco2)c(OCC)cc1NC(=O)COc1ccccc1C , thanks.
-1.87
